- Tested on: 186277-243-T-J2-PDC complex spheroids, viability;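 note: spheroids exposed to compounds for 7 days before viability read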
- ASSAY NAME: Anticancer human tumor 186277-243-T-J2-PDC patient-derived colon adenocarcinoma cell line growth inhibition [RAS]
- PARTICULARS: second compound 0.3 µM; first compound 1 µM; active compounds read low
Some compounds, each annotated with its measured viability, T/C.
OBSERVABLE: viability, T/C (%)

COMPOUND	OBSERVABLE	RESULT UNITS	REPORTED MEASUREMENT
O=C(c1ccc(F)c(F)c1Nc1ccc(I)cc1F)N1CC(O)([C@@H]2CCCCN2)C1 + CCn1c(-c2cc(N3CCN(C)CC3)cnc2C(C)OC)c2c3cc(ccc31)-c1csc(n1)CC(NC(=O)C1CC1C)C(=O)N1CCCC(N1)C(=O)OCC(C)(C)C2	viability, T/C	%	2.4
O=C(c1ccc(F)c(F)c1Nc1ccc(I)cc1F)N1CC(O)([C@@H]2CCCCN2)C1 + CCn1c(-c2cccnc2C(C)OC)c2c3cc(ccc31)N1CCOC(CC(NC(=O)C(C(C)C)N(C)C(=O)C3(F)CCN(C(=O)C#CC(C)(C)N(C)C)CC3)C(=O)N3CCCC(N3)C(=O)OCC(C)(C)C2)C1	viability, T/C	%	2.7
C[C@@H](NC(=O)c1ncnc(N)c1Cl)c1ncc(C(=O)Nc2cc(C(F)(F)F)c(Cl)cn2)s1 + CCn1c(-c2cc(N3CCN(C)CC3)cnc2C(C)OC)c2c3cc(ccc31)-c1csc(n1)CC(NC(=O)C1CC1C)C(=O)N1CCCC(N1)C(=O)OCC(C)(C)C2	viability, T/C	%	7.85
